# Tested on: Fusarium proliferatum
# assay info: Example I: production of fumonisin FB1 by Fusarium proliferatum (microtitre plates)
# Format: cell-based
# condition context: Fusarium proliferatum, 120 h, 5 days at 20° C., HPLC-MS/MS, read-out: % Inhibition der FB1 produktion bei 50 μM
The following molecules are shown together with reported inhibition at 50 µM values.

# molecule, tested target, measurement units, inhibition at 50 µM
rows = [
    ("CC(C)C(=O)Nc1cc(-c2cn(CC3CC3)nc2-c2ccc(F)cc2)ccn1", "Fusarium proliferatum", "%", 100),
    ("N#Cc1cccc(-c2c(-c3ccncc3)cnn2C2CCCCO2)c1 (stereo not drawn)", "Fusarium proliferatum", "%", 100),
    ("CC(C)Cn1cc(-c2ccnc(NC(=O)C3CC3)c2)c(-c2ccc(F)cc2)n1", "Fusarium proliferatum", "%", 100),
    ("COCC(=O)Nc1cc(-c2cn(C(C)C)nc2-c2ccc(F)cc2)ccn1", "Fusarium proliferatum", "%", 100),
    ("CCC(=O)Nc1cc(-c2cn(C(C)CC)nc2-c2ccc(F)cc2)ccn1 (stereo not drawn)", "Fusarium proliferatum", "%", 100),
    ("CCC(=O)Nc1cc(-c2c(-c3ccc(Cl)cc3F)nn(C)c2SC)ccn1", "Fusarium proliferatum", "%", 100),
    ("FC1(F)Oc2cccc(-c3c(-c4ccncc4)cnn3C3CCCCO3)c2O1 (stereo not drawn)", "Fusarium proliferatum", "%", 99),
    ("Fc1ccc(-c2nn(C3CCCCO3)cc2-c2ccnc3[nH]ccc23)cc1 (stereo not drawn)", "Fusarium proliferatum", "%", 100),
    ("Cc1nccc(-c2cn(C3CCCCO3)nc2-c2ccc(F)cc2)n1 (stereo not drawn)", "Fusarium proliferatum", "%", 82),
]

====

# assay info: physchem
# condition context: LogPA
Tag: rule met if measured chromatographic logP is not below 3, rule not met if it is.

# molecule, group
measured = [
    ("COCC(=O)Nc1cc(-c2cn(CC3CC3(Cl)Cl)nc2-c2ccc(F)cc2)ccn1 (stereo not shown) [Compound 245]", "rule met"),
    ("CC(C)CC(=O)Nc1cc(-c2cn(CC(F)F)nc2-c2ccc(F)cc2)ccn1 [Compound 238]", "rule not met"),
    ("CCC(=O)Nc1cc(-c2cn(OC(C)C)nc2-c2ccc(F)cc2)ccn1 [Compound 226]", "rule not met"),
    ("COCC(=O)Nc1cc(-c2cn(C3CCN(C(=O)OC(C)(C)C)CC3)nc2-c2ccc(F)cc2)ccn1 [Compound 204]", "rule met"),
    ("CCOCCn1cc(-c2ccnc(NC(=O)CC)c2)c(-c2ccc(F)cc2)n1 [Compound 326]", "rule not met"),
    ("CCn1cc(-c2ccnc(NC(=O)c3cn(C)nc3C(F)F)c2)c(-c2ccc(F)cc2)n1 [Compound 333]", "rule not met"),
    ("N#Cc1[nH]nc(-c2ccc(F)cc2)c1-c1ccncc1 [Compound 175]", "rule not met"),
    ("CC(c1ccccc1F)n1cc(-c2ccnc(NC(=O)CC3CC3)c2)c(-c2ccc(F)cc2)n1 (stereo not shown) [Compound 250]", "rule met"),
    ("C#CCNc1nccc(-c2cn(CC(C)C)nc2-c2ccc(F)cc2)n1 [Compound 183]", "rule not met"),
    ("CCC(=O)Nc1cc(-c2cn(Cc3ccccc3F)nc2-c2ccc(F)cc2)ccn1 [Compound 213]", "rule not met"),
    ("Cn1cc(-c2ccnc(NC(=O)CC3CC3)c2)c(-c2ccc(F)cc2)n1 [Compound 299]", "rule not met"),
    ("CCC(=O)Nc1cc(-c2cn(C(C)CC#N)nc2-c2ccc(F)cc2)ccn1 (stereo not shown) [Compound 312]", "rule not met"),
    ("CC(C)n1cc(-c2ccnc(NC(c3ccc(F)cc3)C(F)(F)F)c2)c(-c2ccc(F)cc2)n1 (stereo not shown) [Compound 324]", "rule met"),
    ("CC(C)Cn1cc(-c2ccnc(NC(C)C3CC3)n2)c(-c2ccc(F)cc2)n1 (stereo not shown) [Compound 372]", "rule not met"),
    ("CCC(=O)Nc1cc(-c2cn(Cc3cccc(C#N)c3)nc2-c2ccc(F)cc2)ccn1 [Compound 302]", "rule not met"),
    ("CCOC(=O)Nc1cc(-c2cn(CC(C)C)nc2-c2ccc(F)cc2)ccn1 [Compound 267]", "rule met"),
    ("CCn1cc(-c2ccnc(NC(=O)C3CC3C)c2)c(-c2ccc(F)cc2)n1 (stereo not shown) [Compound 341]", "rule not met"),
    ("CCC(C)C(=O)Nc1cc(-c2cn(CC)nc2-c2ccc(F)cc2)ccn1 (stereo not shown) [Compound 340]", "rule not met"),
    ("Cn1cc(-c2ccnc(NC(=O)c3ccc(F)cc3)c2)c(-c2ccc(F)cc2)n1 [Compound 344]", "rule not met"),
    ("COCCOCC(=O)Nc1cc(-c2cn(C)nc2-c2ccc(F)cc2)ccn1 [Compound 345]", "rule not met"),
    ("COCC(=O)Nc1cc(-c2cn(CCCl)nc2-c2ccc(F)cc2)ccn1 [Compound 220]", "rule not met"),
    ("CCOC(=O)Nc1cc(-c2cn(Cc3ccccc3F)nc2-c2ccc(F)cc2)ccn1 [Compound 266]", "rule met"),
    ("CC(C)Cn1cc(-c2ccnc(N(C(=O)C(C)C)C(=O)C(C)C)n2)c(-c2ccc(F)cc2)n1 [Compound 188]", "rule met"),
    ("Cn1cc(-c2ccnc(NC(=O)CCc3ccccc3)c2)c(-c2ccc(F)cc2)n1 [Compound 343]", "rule not met"),
    ("N#CCn1cc(-c2ccncc2)c(-c2ccc(F)cc2)n1 [Compound 180]", "rule not met"),
    ("CC(C)Nc1nccc(-c2c[nH]nc2-c2ccc(F)cc2)n1 [Compound 172]", "rule not met"),
    ("COCC(=O)Nc1nccc(-c2cn(C(C)C)nc2-c2ccc(F)cc2)n1 [Compound 354]", "rule not met"),
    ("O=C(Nc1cc(-c2cn(CC(F)F)nc2-c2ccc(F)cc2)ccn1)C1CC1 [Compound 217]", "rule not met"),
    ("CCC(C)n1cc(-c2ccnc(NC(C)C)n2)c(-c2ccc(F)cc2)n1 (stereo not shown) [Compound 360]", "rule not met"),
    ("Cn1nc(-c2ccc(F)cc2O)c(-c2ccnc(NC(=O)C3CC3)c2)c1OC(F)F [Compound 258]", "rule not met"),
]
